Test system: ethanol-induced gastric ulcer in rats
Assay: Protective effect on ethanol-induced gastric ulcer in rats
Type: in vivo, male Sprague-Dawley rats
Conditions: Rattus norvegicus, 10 mg/kg po, series with control 111.6 ± 10.4 mm
# Lookup of reported inhibition in vivo at 10 mg/kg keyed by entry
Report as a plain number; the unit % is understood.

Example results:
{"COMPOUND": "C=CCn1c(=O)c2c(ncn2CCCCC(O)CO)n(CC)c1=O (stereo not drawn)", "UNIT STRING": "%", "inhibition in vivo at 10 mg/kg": 90.4}
{"COMPOUND": "CCCn1c(=O)c2c(ncn2CCCCCC(O)CO)n(CC)c1=O (stereo not drawn)", "UNIT STRING": "%", "inhibition in vivo at 10 mg/kg": 95.5}
{"COMPOUND": "CCCCCn1c(=O)c2c(ncn2CCCCC(O)CO)n(CC)c1=O (stereo not drawn)", "UNIT STRING": "%", "inhibition in vivo at 10 mg/kg": 86}
{"COMPOUND": "CCCCn1c(=O)c2c(ncn2CCCCC(C)O)n(C)c1=O (stereo not drawn)", "UNIT STRING": "%", "inhibition in vivo at 10 mg/kg": 96.3}
{"COMPOUND": "CCCCn1c(=O)c2c(ncn2CCCCC(O)CO)n(C)c1=O (stereo not drawn)", "UNIT STRING": "%", "inhibition in vivo at 10 mg/kg": 99}

Answer with inhibition in vivo at 10 mg/kg of CCn1c(=O)n(C(C)C)c(=O)c2c1ncn2CCCCC(O)CO (stereo not drawn) measured for ethanol-induced gastric ulcer in rats. 94
